Value source: PubChem BioAssay (NCI)

growth inhibition overview
- Experimental protocol: NCI Yeast Anticancer Drug Screen. Data for the cln2 rad14 strain (AID 165);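 further: 0% = growth equal to vehicle treated cultures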
- Condition parameters: S. cerevisiae cln2 rad14 strain, hits give high values; at 50.0 µM unless noted
Compounds without any hit were thinned out: in the full panel of roughly 79,000, 15% have a hit. Activity calls are given as the source filed them. No stated cut-off is given here; in the data, active means growth inhibition above about 70%; inactive means the rest.

Consider the following illustrative entries.
CCOC(=O)c1sc(C(=O)O)cc1-c1cccs1: -5.6% (inactive)
NC(CCn1cnc2c(=O)[nH]cnc21)C(=O)O (configuration not stated): -31.6% (inactive)
CS(=O)(=O)OCCN(CCOS(C)(=O)=O)c1ccc([N+](=O)[O-])cc1[N+](=O)[O-]: 24.8% (inactive)
CN(C)Cc1cc(-c2c(Cl)cccc2Cl)no1: 4% (inactive)
Nc1ccc(S(=O)(=O)CCCl)cc1: 22.2% (inactive)
O=C(/C=C\c1ccc(Cl)c(Cl)c1)/C=C/c1ccc(Cl)c(Cl)c1: 9.55% (inactive)
CC(C)c1cc(C(C)C)c(S(=O)(=O)N/N=C2\C=CCC(C)(C)C2)c(C(C)C)c1: -47.4% (inactive)
CC(O)CNC(=O)C(C)(C)O (configuration not stated): 9.65% (inactive)

IN: Which growth inhibition value belongs to CCCCCCCCCCCCCCCCC(C#N)C(=O)O (configuration not stated) ?
OUT: -1% (inactive)

----------
Reported growth inhibition by item:
- Experimental protocol: NCI Yeast Anticancer Drug Screen. Data for the mec2-1 strain (AID 157)
- Condition parameters: S. cerevisiae mec2-1 strain, hits give high values; at 50.0 µM unless noted
- Protocol: Growth inhibition of yeast strains with defined genetic alterations is measured as a screen for potential anti-cancer activity. Selected strains with alterations in DNA damage repair or cell cycle control were exposed to compounds and growth inhibition was measured relative to vehicle treated controls. The strain used in this assay is mec2-1
About 79,000 compounds went through this panel and 15% of them were active in at least one assay; those are over-represented in the sample as a whole. The source made the active and inactive calls. No stated cut-off is given here; in the data, active means growth inhibition above about 70%; inactive means the rest.

COC1OC(CO)C(O)C(O)C1OS(=O)(=O)c1ccc(C)cc1 (stereo not given): -3% (inactive)

# evaluate next
IN: What does the record list as growth inhibition for "O=CC[C@]12CC(=O)OC(C=CC13OCCO3)C2" ?
OUT: -9.4% (inactive)

----------
The reader will find reported growth inhibition values listed item by item below.
- Experimental protocol: NCI Yeast Anticancer Drug Screen. Data for the sgs1 mgt1 strain (AID 161);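 further: 0% = growth of cultures given vehicle only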
- Condition parameters: S. cerevisiae sgs1 mgt1 strain, hits give high values; at 50.0 µM unless noted
The panel holds about 79,000 compounds, 15% with a hit somewhere; the sample as a whole holds those more often.
Write it as a number; the unit % goes unstated.

IN: // query growth inhibition value for entry "C=C1CCCC(C)(C)[C@@H]1CC/C(C)=C/Cn1c2cccc(=O)c-2nc2ccccc21"
OUT: 2.15

IN: Likewise for "N#C/C(=C1/c2cc([N+](=O)[O-])ccc2-c2c1cc([N+](=O)[O-])cc2[N+](=O)[O-])N1CCCCC1" ?
OUT: 2.5

IN: Try "CC(=O)Nc1cc(C(=O)Nc2cc(C(=O)Nc3cc(C(=O)Nc4cc(C(=O)Nc5cc(C(=O)NCCC(=O)NCCCN(C)C)n(C)c5)n(C)c4)n(C)c3)n(C)c2)n(C)c1" next.
OUT: -18.6

IN: Follow-up entry: "COc1ccc(CCl)cc1OCc1ccccc1"
OUT: -16.7

IN: Same question, Cc1ccc(C2SC(N)=Nc3c2c(C)nn3C(=O)c2ccc(Cl)cc2)cc1 (centres undefined) this time
OUT: -16.4

IN: Repeat for the following compound: "CCC(=O)Nc1ccccc1Cl"
OUT: -15.4

IN: Then "O=S1(=O)CS/C(=N\C(=S)N(c2ccccc2)c2ccccc2)N1c1ccccc1" ?
OUT: -3.4

IN: Same question, "CC1=C(C(=O)Nc2ccccc2)C(c2ccccc2Cl)C(C(=O)Nc2ccccc2)=C(C)N1" this time
OUT: -6.25

IN: Try this compound too: "O=P(CSCCO)(c1ccccc1)c1ccccc1"
OUT: -13.4

----------
As shown below, each of these compounds has a reported growth inhibition value.
- Experimental protocol: NCI Yeast Anticancer Drug Screen. Data for the mlh1 rad18 strain (AID 175)
- Condition parameters: S. cerevisiae mlh1 rad18 strain growth inhibition; at 50.0 µM (retest, dose inferred, filed as 5.0); hits give high values
- Description: Growth inhibition of yeast strains with defined genetic alterations is measured as a screen for potential anti-cancer activity. Selected strains with alterations in DNA damage repair or cell cycle control were exposed to compounds and growth inhibition was measured relative to vehicle treated controls. The strain used in this assay is mlh1 rad18
Compounds without any hit were thinned out: in the full panel of roughly 79,000, 15% have a hit.
Please respond with the number in % and leave the unit unwritten.

Observe how each entry below is paired with its result.
Fc1ccc([I+]c2ccc(F)cc2)cc1: 81
NN1CCOC(c2ccccc2)C1 (stereo not given): 28
Oc1ccc(Cc2ccccc2Cl)c(O)c1: 98
N#CC(C#N)N=Nc1ccc(Cl)cc1: 87
COc1ccc(Nc2ccc3ccccc3c2)cc1: -7

IN: Item under review: CC(O)C(=O)NC1CCCCC1 (stereo not given) . Reported growth inhibition?
OUT: 17

IN: Same question, "O=C(O)/C=C\C(=O)Nc1cccc2ccccc12" this time
OUT: 25

IN: Another compound to check: N#CC(c1ccccc1)c1cccc2ccccc12 (stereo not given)
OUT: 56

IN: Thanks! And "O=C(Cc1ccccc1)c1ccc(O)c(Cl)c1" ?
OUT: 97

IN: And CC(=O)OC(C)C(=O)NCC(C)O (stereo not given) ?
OUT: 20

----------
- Experimental protocol: NCI Yeast Anticancer Drug Screen. Data for the mec2-1 strain (AID 157)
- Condition parameters: S. cerevisiae mec2-1 strain, hits give high values; at 50.0 µM unless noted
This is part of a sample that, as a whole, favours compounds with a hit. Of some 79,000 tested, about 15% had one in any assay.
Measurement type: growth inhibition (%)
Write it as a number; the unit % goes unstated.

CCCCCCCCN1C(=O)CCC1=O: -19.4
CC(=O)c1oc2cc([N+](=O)[O-])c3ccccc3c2c1C: -8.55
CC1=C(CCC(=O)O)C(=O)C(CCC(=O)O)C(C)(C)C1 (configuration not stated): 7.45
CCN1CCCC(C(=O)O)(c2ccccc2)CC1 (configuration not stated): -11.1
NCCNc1ccccc1: -62
Cc1cccc(-c2cc3ccccc3c(Cl)n2)n1: -23.1

IN: Which growth inhibition is listed for "NC(=O)CCCO" ?
OUT: -2.65

IN: Here is the next compound: CC(C)CC(C)COC(=O)c1c(Cl)c(Cl)c(Cl)c(Cl)c1C(=O)O (configuration not stated)
OUT: 62.6

IN: Request: "O=C1NC(=O)c2c(O)cccc21"
OUT: 23.6

----------
- Experimental protocol: NCI Yeast Anticancer Drug Screen. Data for the mec2-1 strain (AID 157)
- Condition parameters: S. cerevisiae mec2-1 strain, hits give high values; at 50.0 µM unless noted
This is part of a sample that, as a whole, favours compounds with a hit. Of some 79,000 tested, about 15% had one in any assay.
Measurement type: growth inhibition (%)
Record the value in %, omitting the unit from your answer.

Sample answers from the record:
O=C(O)/C=C/C(=O)NCCCCCCNC(=O)/C=C/C(=O)O: -26.4
COc1cc2c(=O)[nH]c3cc(N)ccc3c2cc1N: 7.9
Cc1nc2c(N)n[nH]c(=O)n2n1: -14.4

IN: For "O=C(Nc1ccc([N+](=O)[O-])cc1C(=O)O)c1ccc([N+](=O)[O-])cc1" , what is its reported growth inhibition?
OUT: -3.6

IN: Here is the next compound: "Cc1[nH]c(N)nc(=S)c1CCCNc1ccccc1"
OUT: 2.1

IN: Do the same for "O=C(NCCNC(=O)C(Br)(Br)Br)C(Br)(Br)Br" please
OUT: 53.5

----------
growth inhibition: recorded values
- Experimental protocol: NCI Yeast Anticancer Drug Screen. Data for the mlh1 rad18 strain (AID 175)
- Condition parameters: S. cerevisiae mlh1 rad18 strain growth inhibition, hits give high values; at 50.0 µM unless noted
Compounds without any hit were thinned out: in the full panel of roughly 79,000, 15% have a hit. Active and inactive are the calls of the source. No stated cut-off is given here; in the data, active means growth inhibition above about 70%; inactive means the rest.

The examples below pair each entry with its known result.
CCOC(=O)c1cc2ccccc2cc1N=N: 28.8% (inactive)
c1cncc(C2N3CCCCC3[C@@H]3c4[nH]c5ccccc5c4CCN23)c1 (some centres undefined): -26.9% (inactive)
COc1ccc(NC2Oc3cc4c(cc3C(c3cc(OC)c(O)c(OC)c3)C2C)OCO4)cc1 (centres undefined): 4.8% (inactive)
CC(Cl)S(=O)(=O)c1ccccc1 (centres undefined): -14.3% (inactive)
O=C(OCc1ccccc1)C1CCN1C(c1ccccc1)c1ccccc1 (centres undefined): -7.8% (inactive)
Clc1ccc(C(=Nc2ccccc2)C(Nc2ccccc2)c2ccc(Cl)cc2)cc1 (centres undefined): 19.4% (inactive)
CSc1cccc(NC(=S)NC(=O)c2ccccc2)c1: -17.4% (inactive)
CC1=N/C(=C\c2cccc([N+](=O)[O-])c2)C(=O)O1: 13.5% (inactive)
Nc1cc(S(=O)(=O)O)c(O)c2c1C(=O)c1c(O)c(S(=O)(=O)O)cc(N)c1C2=O: -18% (inactive)
CC(C)(C)NC(=O)CCCl: 41.8% (inactive)

IN: Please look up its growth inhibition: "Cc1cccc(NC(=O)N(C(C)C)C(C)C)c1"
OUT: -27.6% (inactive)

IN: Next entry: O=C1CSC(c2ccc(F)cc2F)N1c1nncs1 (centres undefined)
OUT: 24.2% (inactive)

IN: // same read-out, input: CCSC(SCC)C(NC(C)=O)C(O)C(O)C(O)CO (centres undefined)
OUT: 21.4% (inactive)

IN: Now the molecule "O=c1[nH]nc(Cc2ccccc2)n1C1CCCC1"
OUT: -1.05% (inactive)

IN: And for "CC1(C)N=C(Oc2cc(Cl)cc(Cl)c2)NC(=S)N1" ?
OUT: 24% (inactive)

IN: One more molecule: "N#Cc1cc2c(N)ncnc2nc1N1CCCC1"
OUT: -26.2% (inactive)

IN: Repeat with "CCCCCCCCCCCC(=O)NCc1ccc(OC(=O)CCCCCCCCCCC)c(OC)c1"
OUT: -8.85% (inactive)

IN: // repeat for CN1NC(c2ccccc2)=C(C#N)C(=O)CC1c1ccccc1 (centres undefined) and report
OUT: 10.2% (inactive)

IN: And the next one, "C(/C=N/NC1=NCCN1)=N\NC1=NCCN1" ?
OUT: 41.5% (inactive)

IN: # iterate: "CCCCC1=C(c2ccccc2)/C(=N/Nc2ccc([N+](=O)[O-])cc2[N+](=O)[O-])c2ccccc21"
OUT: 9% (inactive)

IN: CC(N)(CC(O)(C(F)(F)Cl)C(F)(F)Cl)C(=O)O (centres undefined) ?
OUT: -28.8% (inactive)

IN: Consider next the molecule "O=C1CCCNC(=O)N1" in the same way.
OUT: -5.3% (inactive)

IN: Same lookup for COc1cccc(C(c2ccccc2)C(CC(=O)O)CC(=O)O)c1 (centres undefined) , please.
OUT: -16.5% (inactive)

IN: And what about the molecule "N#Cc1c(O)c(N=Nc2ccc(Cl)cc2)c(=O)n2c1[nH]c1ccccc12" ?
OUT: 18.7% (inactive)
